# assayTarget: Recombinant human caspase-8 (active) (human, UniProt Q14790 1-479)
# Sequence (Q14790 whole entry): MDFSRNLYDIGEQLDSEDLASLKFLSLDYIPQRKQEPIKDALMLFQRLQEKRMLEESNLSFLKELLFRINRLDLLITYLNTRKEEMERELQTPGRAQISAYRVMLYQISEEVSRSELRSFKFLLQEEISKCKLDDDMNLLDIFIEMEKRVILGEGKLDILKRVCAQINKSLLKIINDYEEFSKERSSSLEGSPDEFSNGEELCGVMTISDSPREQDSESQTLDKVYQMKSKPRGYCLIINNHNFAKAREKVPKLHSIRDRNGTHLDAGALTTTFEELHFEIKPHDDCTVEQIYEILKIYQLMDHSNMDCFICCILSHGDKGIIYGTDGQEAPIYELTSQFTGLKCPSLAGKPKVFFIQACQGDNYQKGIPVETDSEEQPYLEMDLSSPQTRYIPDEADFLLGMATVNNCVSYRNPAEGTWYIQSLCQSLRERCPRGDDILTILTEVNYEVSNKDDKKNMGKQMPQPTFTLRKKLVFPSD
# testDetails: enzyme inhibition assay (fluorogenic substrate cleavage); one unit of active recombinant human caspase incubated with various concentrations of peptide inhibitor in 100 mM NaCl, 50 mM HEPES, 10 mM DTT, 1 mM EDTA, 10% glycerol, 0.1% CHAPS, pH 7.4, 37°C, 30 min; then 200 μM substrate (Ac-DEVD-MCA for caspases-3 and -7, Ac-IETD-MCA for caspase-8, Ac-LEHD-MCA for caspase-9); apparent Ki = IC50/(1+[S]/Km)
# conditionContext: both partners purified
pKi: −log10 of the molar value.
reportedMetric: pKi

Ac-DQTD-aldehyde (SMILES CC(=O)N[C@@H](CC(=O)O)C(=O)N[C@@H](CCC(N)=O)C(=O)N[C@H](C(=O)N[C@H](C=O)CC(=O)O)[C@@H](C)O, source: bought: Peptide Institute, Inc (synthetic peptide)) [Ac-DQTD-CHO]    8.01
Ac-DEVD-aldehyde (source: bought: Peptide Institute, Inc (synthetic peptide)) [Ac-DEVD-CHO]    9.22
